Data origin: patent US20200216439A1

- subject-of-test: catalytic domain of human Bub1 (amino acids 704-1085) (Homo sapiens, UniProt O43683)
- Construct: catalytic domain of human Bub1 (amino acids 704-1085); His6 (N); made in house; host or cells: Hi5 insect cells
- Sequence (O43683 704-1085): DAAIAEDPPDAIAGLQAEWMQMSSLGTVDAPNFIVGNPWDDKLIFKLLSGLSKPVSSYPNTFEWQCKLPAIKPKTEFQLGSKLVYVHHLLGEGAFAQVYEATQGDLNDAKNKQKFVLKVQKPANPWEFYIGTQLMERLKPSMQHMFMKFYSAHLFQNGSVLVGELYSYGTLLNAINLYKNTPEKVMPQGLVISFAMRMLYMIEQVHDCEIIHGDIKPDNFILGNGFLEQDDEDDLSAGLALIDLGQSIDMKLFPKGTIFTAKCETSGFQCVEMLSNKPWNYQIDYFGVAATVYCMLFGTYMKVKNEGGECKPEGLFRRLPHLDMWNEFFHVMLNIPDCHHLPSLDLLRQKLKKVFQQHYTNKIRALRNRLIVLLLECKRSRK
- assay-name: Bub1 kinase assay (TR-FRET)
- Type: biochemical
- run-conditions: TR-FRET; ATP 10 μM, peptide substrate 1 μM; 60 min at 22° C.; average or median if tested more than once; read-out: Inhibition of Bub1 kinase IC50
property-measured: IC50 (nM)

Guide cases for IC50, answers given:
INSERT INTO measurements (compound, property_measured, result_value) VALUES
  ('Cc1nccc(-c2[nH]c3c(c2Nc2ccccc2)C(=O)CN(C(=O)OC(C)(C)C)C3)n1 [Example 12]', 'IC50', 102),
  ('CC(=O)Nc1cc(-c2[nH]c3c(c2Nc2ccccn2)C(=O)CN(C(=O)OC(C)(C)C)C3)ccn1 [Example 310]', 'IC50', 79),
  ('O=C1CNCc2[nH]c(-c3ccnc(NC(=O)[C@H]4C[C@H]4F)c3)c(Nc3ccccc3)c21 [Example 138]', 'IC50', 224),
  ('CSCC(=O)Nc1cc(-c2[nH]c3c(c2Nc2ccccc2)C(=O)COC3)ccn1 [Example 46]', 'IC50', 93),
  ('COc1cnccc1-c1[nH]c2c(c1Nc1ccccc1)C(=O)CN(C(C)=O)C2 [Example 105]', 'IC50', 12),
  ('CC(C)OC(=O)N1CC(=O)c2c([nH]c(-c3ccnc(NC(=O)c4cncs4)c3)c2Nc2ccccc2)C1 [Example 156]', 'IC50', 12),
  ('CC(=O)Nc1cc(-c2[nH]c3c(c2Nc2ccccc2)C(=O)CN(C(=O)N(C)C)C3)ccn1 [Example 124]', 'IC50', 4),
  ('Cn1cnc(S(=O)(=O)N2CC(=O)c3c([nH]c(-c4ccncc4)c3Nc3ccccc3)C2)c1 [Example 73]', 'IC50', 8);

(A) CC(C)(C)COC(=O)N1CC(=O)c2c([nH]c(-c3ccncc3)c2Nc2ccccc2)C1 [Example 78]
(B) CCN(CC)C(=O)N1CC(=O)c2c([nH]c(-c3ccnc(NC(C)=O)c3)c2Nc2ccccc2)C1 [Example 167]
Which gives the smaller IC50 number: A or B ? Select an item and report its label.
B
(B: 6 nM, A: 73 nM)

(I) O=C1CNCc2[nH]c(-c3ccnc(NC(=O)[C@@H]4C[C@@H]4F)c3)c(Nc3ccccc3)c21 (relative stereo) [Example 136]
(II) O=C(Nc1cc(-c2[nH]c3c(c2Nc2ccccc2)C(=O)COC3)ccn1)c1cncs1 [Example 51]
(III) Cc1ccc(F)cc1C(=O)Nc1cc(-c2[nH]c3c(c2Nc2ccccc2)C(=O)CNC3)ccn1 [Example 269]
(IV) CC(=O)Nc1cc(-c2[nH]c3c(c2Nc2ccc(C)cc2)C(=O)CN(C(=O)OC(C)C)C3)ccn1 [Example 323]
Highest IC50 first, then in falling order down to the smallest. Present the labels in the sequence the task asks for.
IV, III, I, II

(a) NC(CN1CC(=NO)c2c([nH]c(-c3ccncc3)c2Nc2ccccc2)C1)=NO (mixture of isomers) [Example 218]
(b) COc1ccc(C(=O)Nc2cc(-c3[nH]c4c(c3Nc3ccccc3)C(=O)CNC4)ccn2)cc1F [Example 284]
Could you tell me which of a and b has the lower IC50 reading? Label of pick, please.
b

---

- subject-of-test: catalytic domain of human Bub1 (amino acids 704-1085) (Homo sapiens)
- Construct: catalytic domain of human Bub1 (amino acids 704-1085); His6 (N); made in house; host or cells: Hi5 insect cells
- assay-name: Bub1 kinase assay (TR-FRET)
- Assay type: biochemical
- run-conditions: TR-FRET; ATP 10 μM, peptide substrate 1 μM; 60 min at 22° C.; average or median if tested more than once; read-out: Inhibition of Bub1 kinase IC50
property-measured: IC50 (nM)

INSERT INTO assay_data (molecule, subject_of_test, property_measured, result_value) VALUES
  ('O=C1CN(S(=O)(=O)c2cnc[nH]2)Cc2[nH]c(-c3ccnc(NC(=O)[C@H]4C[C@H]4F)c3)c(Nc3ccccc3)c21 (relative stereo)', 'catalytic domain of human Bub1 (amino acids 704-1085) (Homo sapiens)', 'IC50', 6),
  ('CNC(=O)N1CC(=O)c2c([nH]c(-c3ccncc3OCCOC)c2Nc2ccccc2)C1', 'catalytic domain of human Bub1 (amino acids 704-1085) (Homo sapiens)', 'IC50', 5),
  ('CN(C)C(=O)N1CC(=O)c2c([nH]c(-c3ccncc3OCC(F)F)c2Nc2ccccc2)C1', 'catalytic domain of human Bub1 (amino acids 704-1085) (Homo sapiens)', 'IC50', 8),
  ('CCC(=O)N1CC(=O)c2c([nH]c(-c3ccnc(NC(C)=O)c3)c2Nc2ccccc2)C1', 'catalytic domain of human Bub1 (amino acids 704-1085) (Homo sapiens)', 'IC50', 5);

(I) CC(=O)Nc1cc(-c2[nH]c3c(c2Nc2ccccc2)C(=O)CN(S(C)(=O)=O)C3)ccn1
(II) COc1ccc(C(=O)Nc2cc(-c3[nH]c4c(c3Nc3ccccc3)C(=O)CN(C(=O)N3CCOCC3)C4)ccn2)cc1F
Lower value for measured IC50? Options: I , II Mark your selection by writing its label.
I
(I: 4 nM, II: 6 nM)

---

- subject-of-test: catalytic domain of human Bub1 (amino acids 704-1085) (Homo sapiens, UniProt O43683)
- Construct: catalytic domain of human Bub1 (amino acids 704-1085); His6 (N); made in house; host or cells: Hi5 insect cells
- assay-name: Bub1 kinase assay (TR-FRET)
- Format: biochemical
- run-conditions: TR-FRET; ATP 10 μM, peptide substrate 1 μM; 60 min at 22° C.; average or median if tested more than once; read-out: Inhibition of Bub1 kinase IC50
- Protocol: […] In a typical assay 11 different concentrations of each compound (0.1 nM, 0.33 nM, 1.1 nM, 3.8 nM, 13 nM, 44 nM, 0.15 μM, 0.51 μM, 1.7 μM, 5.9 μM and 20 μM) were tested in duplicate within the same microtiter plate. […] Subsequently, the amount of product was evaluated by measurement of the resonance energy transfer from the Eu-chelate-antibody complex recognizing the Phosphoserine residue to the streptavidin-XL665 bound to the biotin moiety of the peptide. […]
property-measured: IC50 (nM)

Some solved entries appear below for comparison.
INSERT INTO results (molecule, subject_of_test, uom, result_value) VALUES
  ('COC(=O)N1CC(=O)c2c([nH]c(-c3ccnc(NC(C)=O)c3)c2Nc2ccc(C)cc2)C1', 'catalytic domain of human Bub1 (amino acids 704-1085) (Homo sapiens, UniProt O43683)', 'nM', 113),
  ('CC(=O)Nc1cc(-c2[nH]c3c(c2Nc2ccccc2)C(=O)CN(C(=O)OCCF)C3)ccn1', 'catalytic domain of human Bub1 (amino acids 704-1085) (Homo sapiens, UniProt O43683)', 'nM', 8),
  ('CC(=O)Nc1cc(-c2[nH]c3c(c2Nc2ccccc2)C(=O)CN(C(=O)C(C)C(F)(F)F)C3)ccn1 (racemic)', 'catalytic domain of human Bub1 (amino acids 704-1085) (Homo sapiens, UniProt O43683)', 'nM', 5),
  ('CN1CCN(C(=O)N2CC(=O)c3c([nH]c(-c4ccnc(NC(=O)[C@@H]5C[C@@H]5F)c4)c3Nc3ccccc3)C2)CC1', 'catalytic domain of human Bub1 (amino acids 704-1085) (Homo sapiens, UniProt O43683)', 'nM', 7);

(1) COc1ccc(C(=O)Nc2cc(-c3[nH]c4c(c3Nc3ccccc3)C(=O)CN(C(=O)N3C[C@@H](C)O[C@@H](C)C3)C4)ccn2)cc1F
(2) CC(=O)Nc1cc(-c2[nH]c3c(c2Nc2ccccc2)C(=O)CN(C(=O)CCF)C3)ccn1
Which entry shows the lesser value of IC50 here, 1 or 2 ? Return value: the label identifying the chosen record.
2

(A) COc1cnccc1-c1[nH]c2c(c1Nc1ccccc1)C(=O)COC2
(B) COc1cnccc1-c1[nH]c2c(c1Nc1ccccc1)C(=O)CN(C(=O)C(C)(C)C)C2
Exercise: compare A and B ; which one has the greater IC50? # answer = label of selected item
A

---

- subject-of-test: catalytic domain of human Bub1 (amino acids 704-1085) (Homo sapiens, UniProt O43683)
- Construct: catalytic domain of human Bub1 (amino acids 704-1085); His6 (N); made in house; host or cells: Hi5 insect cells
- assay-name: Bub1 kinase assay (TR-FRET)
- Format: biochemical
- run-conditions: TR-FRET; ATP 10 μM, peptide substrate 1 μM; 60 min at 22° C.; average or median if tested more than once; read-out: Inhibition of Bub1 kinase IC50
pIC50: −log10 of the molar value.
property-measured: pIC50

INSERT INTO assay_data (compound, subject_of_test, result_value) VALUES
  ('O=C1CN(C(=O)N2CCNC2=O)Cc2[nH]c(-c3ccncc3)c(Nc3ccccc3)c21', 'catalytic domain of human Bub1 (amino acids 704-1085) (Homo sapiens, UniProt O43683)', 7.85),
  ('C[S+]([O-])CC(=O)Nc1cc(-c2[nH]c3c(c2Nc2ccccc2)C(=O)COC3)ccn1 (stereo not drawn)', 'catalytic domain of human Bub1 (amino acids 704-1085) (Homo sapiens, UniProt O43683)', 6.47),
  ('COC(=O)N1CC(=O)c2c([nH]c(-c3ccncc3OCC(F)F)c2Nc2ccccc2)C1', 'catalytic domain of human Bub1 (amino acids 704-1085) (Homo sapiens, UniProt O43683)', 7.80),
  ('COc1ccc(C(=O)Nc2cc(-c3[nH]c4c(c3Nc3ccccc3)C(=O)CN(C(=O)N3CCCC3)C4)ccn2)cc1F', 'catalytic domain of human Bub1 (amino acids 704-1085) (Homo sapiens, UniProt O43683)', 8.00);

(I) CC(=O)N1CC(=O)c2c([nH]c(-c3ccnc(NC(=O)c4ccc(F)cc4C)c3)c2Nc2ccccc2)C1
(II) Cc1cc(F)ccc1C(=O)Nc1cc(-c2[nH]c3c(c2Nc2ccccc2)C(=O)CN(C(=O)OC(C)(C)C)C3)ccn1
Of I and II , which shows the smaller pIC50 value? Answer with the label corresponding to your selection.
II
(II: 7.42, I: 8.22)
